Target protein (sequence): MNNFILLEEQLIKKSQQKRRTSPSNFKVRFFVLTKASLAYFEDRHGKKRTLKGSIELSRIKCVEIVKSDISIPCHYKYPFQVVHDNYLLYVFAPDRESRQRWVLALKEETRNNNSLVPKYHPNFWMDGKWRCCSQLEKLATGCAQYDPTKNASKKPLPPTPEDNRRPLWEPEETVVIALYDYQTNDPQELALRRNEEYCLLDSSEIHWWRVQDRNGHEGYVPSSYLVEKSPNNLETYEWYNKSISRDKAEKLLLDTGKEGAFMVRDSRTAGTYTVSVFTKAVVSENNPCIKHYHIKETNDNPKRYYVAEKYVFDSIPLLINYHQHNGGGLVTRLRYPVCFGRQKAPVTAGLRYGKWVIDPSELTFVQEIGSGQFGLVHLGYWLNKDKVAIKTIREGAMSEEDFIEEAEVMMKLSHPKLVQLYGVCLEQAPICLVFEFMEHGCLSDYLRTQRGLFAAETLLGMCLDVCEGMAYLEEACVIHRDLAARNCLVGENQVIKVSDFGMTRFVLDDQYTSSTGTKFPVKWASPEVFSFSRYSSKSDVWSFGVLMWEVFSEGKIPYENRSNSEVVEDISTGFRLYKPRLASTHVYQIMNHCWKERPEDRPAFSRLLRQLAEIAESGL
Result Type: Ki (nM)

# Compound, Result Type, Value Observed
data = [
    ("CC1(C)CCc2c(C(=O)Nc3cnn(C(c4ccccc4)C(C)(C)O)c3)n[nH]c2C1 (single isomer, unassigned) [Example 55a]", "Ki", 5),
    ("O=C(Nc1cnn(Cc2ccccc2)c1)c1n[nH]c2c1CCC(CO)C2 (single isomer, unassigned) [Example 14a]", "Ki", 120),
    ("N#Cc1cccc(Cn2cc(NC(=O)c3n[nH]c4c3CCC(O)C4)cn2)c1 (single isomer, unassigned) [Example 5a]", "Ki", 310),
    ("CN(C)CCC(c1ccccc1)n1cc(NC(=O)c2n[nH]c3c2CC2CC2C3)cn1 (single isomer, unassigned) [Example 28c]", "Ki", 155),
    ("CC1(C)CCc2c(C(=O)Nc3cnn(C(c4cccc(S(C)(=O)=O)c4)C4CCOCC4)c3)n[nH]c2C1 (single isomer, unassigned) [Example 154b]", "Ki", 1),
    ("CC12Cc3[nH]nc(C(=O)Nc4cnn(Cc5ccccc5)c4)c3C1C2 (single isomer, unassigned) [Example 150a]", "Ki", 130),
]

---

- Study System: ITK (Homo sapiens, UniProt Q08881)
- Sequence (Q08881 1-620): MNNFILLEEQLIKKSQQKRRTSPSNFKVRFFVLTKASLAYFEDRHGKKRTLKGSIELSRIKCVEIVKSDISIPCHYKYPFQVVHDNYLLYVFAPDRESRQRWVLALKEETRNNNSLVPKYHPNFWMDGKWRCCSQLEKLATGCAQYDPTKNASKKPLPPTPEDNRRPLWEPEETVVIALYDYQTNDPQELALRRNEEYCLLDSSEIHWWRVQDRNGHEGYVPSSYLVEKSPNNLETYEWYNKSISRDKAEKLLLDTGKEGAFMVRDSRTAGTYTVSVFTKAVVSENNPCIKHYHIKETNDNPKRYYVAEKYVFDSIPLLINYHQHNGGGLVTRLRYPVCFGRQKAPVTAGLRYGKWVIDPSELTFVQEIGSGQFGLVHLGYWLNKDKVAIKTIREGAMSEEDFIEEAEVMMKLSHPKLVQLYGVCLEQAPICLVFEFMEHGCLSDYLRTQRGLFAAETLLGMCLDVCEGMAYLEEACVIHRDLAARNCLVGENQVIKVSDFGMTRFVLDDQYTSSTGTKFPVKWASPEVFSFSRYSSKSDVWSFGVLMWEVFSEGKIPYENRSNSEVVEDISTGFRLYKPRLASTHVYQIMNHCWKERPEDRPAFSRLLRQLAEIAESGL
The following compounds are shown together with reported Ki values.

# Compound, Study System, Readout Unit, Ki
data = [
    ("CCC(c1cccnc1)n1cc(NC(=O)c2n[nH]c3c2CCC(C)(C)C3)cn1 (single isomer, unassigned) [Example 54a]", "ITK (Homo sapiens, UniProt Q08881)", "nM", 1),
    ("Cc1cccc(C(C2CNC2)n2cc(NC(=O)c3n[nH]c4c3CCC(C)(C)C4)cn2)c1 (single isomer, unassigned) [Example 47b]", "ITK (Homo sapiens, UniProt Q08881)", "nM", 9),
    ("CC1(C)CCc2c(C(=O)Nc3cnn(C(c4nccs4)C4CCSCC4)c3)n[nH]c2C1 (single isomer, unassigned) [Example 85a]", "ITK (Homo sapiens, UniProt Q08881)", "nM", 0.6),
    ("CC1(C#N)CCc2c(C(=O)Nc3cnn(Cc4ccccc4)c3)n[nH]c2C1 (single isomer, unassigned) [Example 102a]", "ITK (Homo sapiens, UniProt Q08881)", "nM", 300),
    ("CC1(C)CCc2c(C(=O)Nc3cnn(C(c4cccc(C#N)c4)C4CCS(=O)(=O)CC4)c3)n[nH]c2C1 (single isomer, unassigned) [Example 110b]", "ITK (Homo sapiens, UniProt Q08881)", "nM", 3),
    ("CC1(C)CCc2c(C(=O)Nc3cnn(C(c4ccccc4)[C@@H]4CNCCO4)c3)n[nH]c2C1 (single isomer, unassigned) [Example 66b]", "ITK (Homo sapiens, UniProt Q08881)", "nM", 1),
]

---

- Study System: ITK (Homo sapiens, UniProt Q08881)
- Sequence (Q08881 1-620): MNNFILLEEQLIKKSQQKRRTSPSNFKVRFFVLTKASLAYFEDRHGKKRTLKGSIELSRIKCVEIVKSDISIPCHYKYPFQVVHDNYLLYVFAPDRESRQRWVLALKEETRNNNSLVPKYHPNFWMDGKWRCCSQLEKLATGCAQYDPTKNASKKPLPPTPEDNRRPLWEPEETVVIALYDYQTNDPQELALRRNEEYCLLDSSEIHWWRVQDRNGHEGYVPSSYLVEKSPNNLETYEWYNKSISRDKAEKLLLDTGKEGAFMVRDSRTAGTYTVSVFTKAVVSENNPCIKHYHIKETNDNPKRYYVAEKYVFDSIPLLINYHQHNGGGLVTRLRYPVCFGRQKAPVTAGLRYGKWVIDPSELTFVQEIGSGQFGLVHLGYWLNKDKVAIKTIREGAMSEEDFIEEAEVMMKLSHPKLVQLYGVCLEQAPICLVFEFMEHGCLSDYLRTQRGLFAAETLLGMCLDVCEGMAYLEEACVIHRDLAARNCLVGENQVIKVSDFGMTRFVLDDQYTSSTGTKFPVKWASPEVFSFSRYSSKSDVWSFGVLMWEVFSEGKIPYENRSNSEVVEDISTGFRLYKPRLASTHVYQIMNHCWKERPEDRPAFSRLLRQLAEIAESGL

# Compound, Ki, nM
measured = [
    ("CC1CC(C(c2ccccc2)n2cc(NC(=O)c3n[nH]c4c3CCC(C)(C)C4)cn2)CCS1(=O)=O (single isomer, unassigned) [Example 139b]", 0.7),
    ("O=C(Nc1cnn(Cc2ccccc2)c1)c1n[nH]c2c1CCC1(CCCO1)C2 (single isomer, unassigned) [Example 50b]", 620),
    ("CC1(C)CCc2c(C(=O)Nc3cnn(C(CN4CCC4)c4ccccc4)c3)n[nH]c2C1 (single isomer, unassigned) [Example 57a]", 2),
    ("CC1(C)CCc2c(C(=O)Nc3cnn(C(c4cccc(Cl)c4)C4CCOCC4)c3)n[nH]c2C1 (single isomer, unassigned) [Example 115a]", 0.2),
    ("CC[C@@H](c1ccccc1)n1cc(NC(=O)c2n[nH]c3c2CC2CC2C3)cn1 (single isomer, unassigned) [Example 24a]", 9.4),
    ("CC1(C)CCc2c(C(=O)Nc3cnn(C(CS(C)(=O)=O)c4cccnc4)c3)n[nH]c2C1 (single isomer, unassigned) [Example 73b]", 7),
]

---

The following compounds are shown together with reported pKi values.
- Study System: ITK (Homo sapiens, UniProt Q08881)
- Sequence (Q08881 1-620): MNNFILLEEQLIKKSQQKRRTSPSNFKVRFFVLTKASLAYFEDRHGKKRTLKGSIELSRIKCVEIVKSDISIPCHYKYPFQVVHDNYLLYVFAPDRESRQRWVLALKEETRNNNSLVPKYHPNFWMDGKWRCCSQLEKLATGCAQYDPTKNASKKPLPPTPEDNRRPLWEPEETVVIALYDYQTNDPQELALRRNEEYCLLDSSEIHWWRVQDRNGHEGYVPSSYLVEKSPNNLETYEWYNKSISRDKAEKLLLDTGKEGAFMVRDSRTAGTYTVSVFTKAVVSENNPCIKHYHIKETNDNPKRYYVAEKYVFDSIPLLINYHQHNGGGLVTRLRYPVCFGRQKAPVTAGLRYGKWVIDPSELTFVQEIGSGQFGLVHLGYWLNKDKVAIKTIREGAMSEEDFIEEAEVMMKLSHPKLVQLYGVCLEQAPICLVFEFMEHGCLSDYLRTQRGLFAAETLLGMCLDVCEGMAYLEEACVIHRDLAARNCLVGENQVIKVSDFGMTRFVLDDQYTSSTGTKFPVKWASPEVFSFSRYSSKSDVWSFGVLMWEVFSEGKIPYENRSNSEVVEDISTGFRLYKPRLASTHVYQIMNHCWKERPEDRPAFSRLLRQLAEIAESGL
pKi: −log10 of the molar value.

# Compound, Study System, Value Relation Sign, pKi
records = [
    ("Cc1nnc(C(C)n2cc(NC(=O)c3n[nH]c4c3CCC(C)(C)C4)cn2)o1 (single isomer, unassigned) [Example 101b]", "ITK (Homo sapiens, UniProt Q08881)", "=", 7.92),
    ("CC12Cc3c(C(=O)Nc4cnn(C(c5ccccc5)C5CCS(=O)(=O)CC5)c4)n[nH]c3C1C2 (single isomer, unassigned) [Example 152c]", "ITK (Homo sapiens, UniProt Q08881)", "=", 8.70),
    ("CC12Cc3[nH]nc(C(=O)Nc4cnn(C(c5ccccc5)C5CC[S+]([O-])CC5)c4)c3CC1C2(F)F (single isomer, unassigned) [Example 142a]", "ITK (Homo sapiens, UniProt Q08881)", ">", 10.00),
    ("CN1CCC2(CCc3c(C(=O)Nc4cnn(Cc5ccccc5)c4)n[nH]c3C2)C1=O (single isomer, unassigned) [Example 123a]", "ITK (Homo sapiens, UniProt Q08881)", "=", 7.06),
    ("O=C(Nc1cnn(Cc2ccccc2)c1)c1n[nH]c2c1CCC(CO)C2 (single isomer, unassigned) [Example 14b]", "ITK (Homo sapiens, UniProt Q08881)", "=", 7.68),
    ("CN1CC(C(c2ccccc2)n2cc(NC(=O)c3n[nH]c4c3CCC(C)(C)C4)cn2)C1 (single isomer, unassigned) [Example 38b]", "ITK (Homo sapiens, UniProt Q08881)", "=", 9.30),
]
